- TARGET SYSTEM: PIM3 (Homo sapiens)
ENDPOINT NAME: IC50 (nM)
Please respond with the number in nM and leave the unit unwritten.

Lab note: need IC50 for CC(=O)Oc1ccc(/C=C2\Sc3ccc(F)cc3NC2=O)cc1[N+](=O)[O-] on PIM3 (Homo sapiens), anyone have it?
2

====

- TARGET SYSTEM: CK2α1 (Homo sapiens)
- TEST NAME: Kinase panel profiling (Reaction Biology Corp)
- Type: biochemical
- PARTICULARS: CK2α1, kinase inhibition profile
ENDPOINT NAME: pIC50
Please report pIC50 as the negative decimal logarithm of the molar concentration, giving only the number.

Requested field: pIC50. Item: CC(=O)Oc1ccc(/C=C2\Sc3ccc(F)cc3NC2=O)cc1[N+](=O)[O-]
8.52

====

- TARGET SYSTEM: UniProt P19784
- TEST NAME: In vitro kinase assay with recombinant protein (32P-ATP, filtermat)
- Assay type: biochemical
- PARTICULARS: recombinant CK2α2, independent in vitro kinase assay, 20μM ATP
ENDPOINT NAME: IC50

Requested field: IC50. Item: CC(=O)Oc1ccc(/C=C2\Sc3ccc(F)cc3NC2=O)cc1[N+](=O)[O-]
2 nM

====

- TARGET SYSTEM: CDK4/CyclinD1 (Homo sapiens, UniProt P11802)
- Sequence (P11802 whole entry): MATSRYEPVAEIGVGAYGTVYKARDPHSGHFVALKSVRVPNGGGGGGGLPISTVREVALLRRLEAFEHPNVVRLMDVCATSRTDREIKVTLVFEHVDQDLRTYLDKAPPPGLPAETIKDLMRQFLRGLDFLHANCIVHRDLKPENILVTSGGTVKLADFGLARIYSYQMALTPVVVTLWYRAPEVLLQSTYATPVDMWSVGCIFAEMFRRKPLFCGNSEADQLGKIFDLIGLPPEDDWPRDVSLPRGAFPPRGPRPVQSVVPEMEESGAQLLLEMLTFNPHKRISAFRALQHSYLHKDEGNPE
- Sequence (P24385 whole entry partner): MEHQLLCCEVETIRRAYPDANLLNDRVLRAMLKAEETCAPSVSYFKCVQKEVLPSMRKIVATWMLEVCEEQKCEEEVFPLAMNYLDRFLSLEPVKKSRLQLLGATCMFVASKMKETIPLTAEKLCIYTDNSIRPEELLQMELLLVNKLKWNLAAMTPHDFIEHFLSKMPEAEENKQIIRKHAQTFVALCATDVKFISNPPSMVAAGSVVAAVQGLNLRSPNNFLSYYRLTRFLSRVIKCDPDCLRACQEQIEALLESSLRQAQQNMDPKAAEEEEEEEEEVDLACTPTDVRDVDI
- TEST NAME: Kinase panel profiling (Reaction Biology Corp)
- PARTICULARS: CDK4/CyclinD1, kinase inhibition profile
ENDPOINT NAME: pIC50
Please report pIC50 as the negative decimal logarithm of the molar concentration, giving only the number.

Requested field: pIC50. Item: CC(=O)Oc1ccc(/C=C2\Sc3ccc(F)cc3NC2=O)cc1[N+](=O)[O-] [ON108110]
7.96

====

- TARGET SYSTEM: CDK6/CyclinD3 (Homo sapiens)
- Sequence (Q00534 whole entry): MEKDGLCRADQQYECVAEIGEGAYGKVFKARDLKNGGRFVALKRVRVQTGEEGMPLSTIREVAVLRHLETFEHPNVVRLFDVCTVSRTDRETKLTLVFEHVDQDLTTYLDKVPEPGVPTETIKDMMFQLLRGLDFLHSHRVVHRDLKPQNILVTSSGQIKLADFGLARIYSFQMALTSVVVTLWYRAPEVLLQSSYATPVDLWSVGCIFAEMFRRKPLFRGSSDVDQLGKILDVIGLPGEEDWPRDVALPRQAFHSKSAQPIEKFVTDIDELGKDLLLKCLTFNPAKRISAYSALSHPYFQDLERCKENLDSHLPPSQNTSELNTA
- Sequence (P30281 whole entry partner): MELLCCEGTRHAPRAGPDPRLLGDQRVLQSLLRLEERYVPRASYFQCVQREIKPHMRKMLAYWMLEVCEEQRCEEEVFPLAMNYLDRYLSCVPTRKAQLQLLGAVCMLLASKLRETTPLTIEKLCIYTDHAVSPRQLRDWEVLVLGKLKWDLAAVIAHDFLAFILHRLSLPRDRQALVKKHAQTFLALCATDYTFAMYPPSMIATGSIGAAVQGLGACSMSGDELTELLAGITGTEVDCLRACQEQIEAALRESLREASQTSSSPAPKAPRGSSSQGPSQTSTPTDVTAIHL
- TEST NAME: Kinase panel profiling (Reaction Biology Corp)
- Type: biochemical
- PARTICULARS: CDK6/CyclinD3, kinase inhibition profile
ENDPOINT NAME: pIC50
Please report pIC50 as the negative decimal logarithm of the molar concentration, giving only the number.

Requested field: pIC50. Item: CC(=O)Oc1ccc(/C=C2\Sc3ccc(F)cc3NC2=O)cc1[N+](=O)[O-]
7.62

====

- TARGET SYSTEM: CDK6/CyclinD1 (Homo sapiens)
- Sequence (Q00534 whole entry): as the sequence (Q00534 whole entry) above
- Sequence (P24385 whole entry partner): as the sequence (P24385 whole entry partner) above
- TEST NAME: Kinase panel profiling (Reaction Biology Corp)
- PARTICULARS: CDK6/CyclinD1, kinase inhibition profile
ENDPOINT NAME: IC50 (nM)
Please respond with the number in nM and leave the unit unwritten.

Requested field: IC50. Item: CC(=O)Oc1ccc(/C=C2\Sc3ccc(F)cc3NC2=O)cc1[N+](=O)[O-]
2

====

- TARGET SYSTEM: CDK4 (Homo sapiens)
- Sequence (P11802 whole entry): as the sequence (P11802 whole entry) above
- Sequence (P24385 whole entry partner): as the sequence (P24385 whole entry partner) above
- TEST NAME: In vitro kinase assay with recombinant protein (32P-ATP, filtermat)
- PARTICULARS: recombinant CDK4, independent in vitro kinase assay, 20μM ATP
ENDPOINT NAME: IC50 (nM)
Please respond with the number in nM and leave the unit unwritten.

Lab note: need IC50 for CC(=O)Oc1ccc(/C=C2\Sc3ccc(F)cc3NC2=O)cc1[N+](=O)[O-] [ON108110] on CDK4 (Homo sapiens), anyone have it?
6

====

- TARGET SYSTEM: recombinant CK2α1 (Homo sapiens)
- Construct: Amino acid residues 3-335 of CK2α1 were cloned using BamH1 and HindIII into pET28bsmt3-SUMO fusion vector; SUMO (N)
- Sequence (P68400 3-335): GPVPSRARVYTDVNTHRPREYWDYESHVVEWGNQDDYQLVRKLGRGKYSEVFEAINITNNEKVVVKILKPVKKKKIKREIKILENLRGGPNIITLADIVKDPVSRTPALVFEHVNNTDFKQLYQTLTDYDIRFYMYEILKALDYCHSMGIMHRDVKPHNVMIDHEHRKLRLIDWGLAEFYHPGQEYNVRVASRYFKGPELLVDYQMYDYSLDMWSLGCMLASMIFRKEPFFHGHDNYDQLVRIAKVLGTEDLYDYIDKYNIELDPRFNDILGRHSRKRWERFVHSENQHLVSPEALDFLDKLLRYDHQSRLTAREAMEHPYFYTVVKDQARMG
- TEST NAME: Microscale thermophoresis (MST)
- PARTICULARS: 16 concentrations 0.1nM-1000nM, average of 3 independent experiments
ENDPOINT NAME: Kd (nM)
Please respond with the number in nM and leave the unit unwritten.

Requested field: Kd. Item: CC(=O)Oc1ccc(/C=C2\Sc3ccc(F)cc3NC2=O)cc1[N+](=O)[O-]
2.5

====

- TARGET SYSTEM: CDK5/P25 (Homo sapiens, UniProt Q00535)
- Sequence (Q00535 whole entry): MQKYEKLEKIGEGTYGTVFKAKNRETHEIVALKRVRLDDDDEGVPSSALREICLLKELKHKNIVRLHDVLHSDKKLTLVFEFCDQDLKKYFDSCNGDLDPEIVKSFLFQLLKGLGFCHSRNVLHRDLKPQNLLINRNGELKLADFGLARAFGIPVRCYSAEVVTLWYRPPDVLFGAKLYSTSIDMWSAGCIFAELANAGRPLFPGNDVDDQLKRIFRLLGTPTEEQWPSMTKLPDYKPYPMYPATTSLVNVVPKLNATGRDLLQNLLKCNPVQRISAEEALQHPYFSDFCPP
- Sequence (Q15078 99-307 partner limits assumed): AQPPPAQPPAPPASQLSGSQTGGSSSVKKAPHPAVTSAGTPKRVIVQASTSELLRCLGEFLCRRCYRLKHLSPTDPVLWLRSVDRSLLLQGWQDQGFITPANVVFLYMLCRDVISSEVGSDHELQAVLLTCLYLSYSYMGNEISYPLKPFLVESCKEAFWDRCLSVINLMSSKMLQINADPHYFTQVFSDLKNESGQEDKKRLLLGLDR
- TEST NAME: Kinase panel profiling (Reaction Biology Corp)
- PARTICULARS: CDK5/P25, kinase inhibition profile
ENDPOINT NAME: IC50 (nM)
Please respond with the number in nM and leave the unit unwritten.

Requested field: IC50. Item: CC(=O)Oc1ccc(/C=C2\Sc3ccc(F)cc3NC2=O)cc1[N+](=O)[O-]
7

====

- TARGET SYSTEM: CK2α2 (Homo sapiens)
- Sequence (P19784 whole entry): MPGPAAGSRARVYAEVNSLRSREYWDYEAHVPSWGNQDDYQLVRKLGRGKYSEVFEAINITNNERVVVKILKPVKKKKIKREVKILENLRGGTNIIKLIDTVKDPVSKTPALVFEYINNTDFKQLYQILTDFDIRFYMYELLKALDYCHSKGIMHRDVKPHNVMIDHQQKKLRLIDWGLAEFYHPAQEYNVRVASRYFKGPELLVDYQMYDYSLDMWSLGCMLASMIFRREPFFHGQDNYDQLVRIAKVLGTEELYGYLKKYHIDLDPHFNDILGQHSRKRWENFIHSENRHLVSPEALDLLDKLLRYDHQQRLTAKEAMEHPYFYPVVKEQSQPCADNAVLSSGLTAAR
- TEST NAME: Kinase panel profiling (Reaction Biology Corp)
- Type: biochemical
- PARTICULARS: CK2α2, kinase inhibition profile
ENDPOINT NAME: IC50 (nM)
Please respond with the number in nM and leave the unit unwritten.

Requested field: IC50. Item: CC(=O)Oc1ccc(/C=C2\Sc3ccc(F)cc3NC2=O)cc1[N+](=O)[O-] [ON108110]
2
